Overview of reported hA3G up-regulation activity (%) across a group of compounds:
target.desc: hA3G degradation mediated by HIV-1 Vif (UniProt P69723+Q9HC16)
Construct: expressed in transfected cells
Sequence (P69723 whole entry): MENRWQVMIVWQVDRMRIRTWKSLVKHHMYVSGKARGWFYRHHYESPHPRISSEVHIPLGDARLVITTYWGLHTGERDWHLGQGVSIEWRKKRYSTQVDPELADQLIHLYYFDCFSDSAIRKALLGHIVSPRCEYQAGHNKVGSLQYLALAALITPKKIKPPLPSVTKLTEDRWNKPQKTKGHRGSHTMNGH
Sequence (Q9HC16 whole entry): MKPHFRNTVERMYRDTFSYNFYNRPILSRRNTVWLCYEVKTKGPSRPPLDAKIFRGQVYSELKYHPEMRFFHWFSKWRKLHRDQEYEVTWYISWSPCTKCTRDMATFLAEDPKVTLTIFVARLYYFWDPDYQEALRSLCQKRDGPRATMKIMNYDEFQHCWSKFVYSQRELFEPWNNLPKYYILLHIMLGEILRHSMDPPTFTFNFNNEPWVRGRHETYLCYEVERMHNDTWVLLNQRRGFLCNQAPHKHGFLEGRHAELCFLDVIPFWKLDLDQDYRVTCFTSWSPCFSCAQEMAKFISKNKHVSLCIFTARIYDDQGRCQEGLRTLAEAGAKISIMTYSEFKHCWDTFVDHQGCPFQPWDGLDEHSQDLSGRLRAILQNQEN
run.description: Screening experiment for up-regulation activity to hA3G (YFP-fused hA3G co-expressed with HIV-1 Vif, fluorescence)
Format: cell-based, human
assay.context: YFP fluorescence of cells co-expressing Vif and hA3G-YFP; excitation 485 nm, detection 520 nm; averages of duplicates
Form entry: value (%) — number only.

# annotated cases, reported hA3G up-regulation activity (%) shown
COc1ccc(C(=O)Sc2cc(OC)c(OC)c(OC)c2)cc1NC(=O)C(C)F (centres unmarked): 21.1
COc1cc(OC(=O)c2cc(NC(C)=O)cc(C(F)(F)F)c2)cc(OC)c1OC: 29.0
COc1ccc(C(=O)Oc2cc(OC)c(OC)c(OC)c2)cc1NC(=O)C(C)Br (centres unmarked): 44.9
COc1ccc(C(=O)Cc2cc(OC)c(OC)c(OC)c2)cc1N: 28.7

Note: attention shifts to another entry.
Sample COc1ccc(C(=O)Cc2cc(OC)c(OC)c(OC)c2)cc1NC(=O)C(C)F (centres unmarked) ; hA3G up-regulation activity (%) observed: 19.4
